systemName: human melanin concentrating hormone receptor (MCHR1) (Homo sapiens, UniProt Q99705, A5T/E4Q)
Construct: expressed in transfected cells; host or cells: HEK-293 (stably transfected), membranes
Sequence (Q99705 whole entry E4Q/A5T): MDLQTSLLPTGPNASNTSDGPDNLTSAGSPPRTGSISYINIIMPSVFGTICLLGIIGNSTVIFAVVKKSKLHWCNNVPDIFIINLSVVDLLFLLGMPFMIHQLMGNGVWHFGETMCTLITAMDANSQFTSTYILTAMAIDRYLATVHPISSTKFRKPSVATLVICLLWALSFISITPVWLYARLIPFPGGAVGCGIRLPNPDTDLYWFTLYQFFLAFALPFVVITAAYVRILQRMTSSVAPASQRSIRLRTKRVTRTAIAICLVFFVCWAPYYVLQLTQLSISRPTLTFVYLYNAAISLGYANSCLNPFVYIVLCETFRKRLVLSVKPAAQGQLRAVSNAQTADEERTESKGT
testMethodNotes: Radioligand binding assay for assessment of MCHR1 activity
runConditions: membranes of HEK-293 cells expressing mutated hMCHR1; competition with [125I]-MCH
measure: Ki (µM)

(P) CC(C)(O)COc1ccc(-n2ccnc(OCCc3ccc(F)cc3)c2=O)cc1Cl
(Q) COc1ccc(-n2ccnc(Sc3ccc(OC(F)(F)F)cc3)c2=O)cc1OC
Field: lower recorded Ki (choose P or Q ) Could you answer with the label of the item you picked?
P

(A) CCc1cc(-n2ccnc(OCCc3ccc(Cl)cc3)c2=O)ccc1OCC(C)(C)O
(B) COc1cc(-n2ccnc(Sc3nc4ccc(Cl)cc4s3)c2=O)ccc1OCC(C)(C)O
Between these two entries, A and B , state which has the higher Ki. Returns: label corresponding to the selected item.
B

(A) COc1cc(-n2ccnc(Sc3ccc(C(F)(F)F)cc3)c2=O)ccc1OCC(C)O (centres unmarked)
(B) Cc1cc(-n2ccnc(Sc3ccc(C(F)(F)F)cc3)c2=O)cnc1OCC(C)(C)O
// compare measured Ki between A and B ; output the lower one Selection: enter the item's label.
A
(A: 0.062 µM, B: 0.132 µM)
